# study.system: UniProt P21554
# Sequence (P21554 whole entry): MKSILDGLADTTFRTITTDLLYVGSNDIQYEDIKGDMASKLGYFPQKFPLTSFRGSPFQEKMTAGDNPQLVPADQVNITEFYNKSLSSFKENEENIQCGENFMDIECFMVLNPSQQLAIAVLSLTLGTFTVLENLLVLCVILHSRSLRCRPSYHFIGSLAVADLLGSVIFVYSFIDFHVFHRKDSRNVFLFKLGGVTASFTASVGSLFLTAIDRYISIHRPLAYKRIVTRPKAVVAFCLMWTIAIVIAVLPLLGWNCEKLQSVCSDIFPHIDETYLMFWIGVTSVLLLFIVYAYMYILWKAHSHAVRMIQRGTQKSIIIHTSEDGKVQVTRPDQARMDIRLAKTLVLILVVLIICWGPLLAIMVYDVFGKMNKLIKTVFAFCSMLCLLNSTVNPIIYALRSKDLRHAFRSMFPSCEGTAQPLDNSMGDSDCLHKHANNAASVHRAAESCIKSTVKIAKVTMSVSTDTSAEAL
# test.details: Compound was evaluated for its binding affinity towards Cannabinoid receptor 1 [Inactive form(R) of CB1 receptor]
value.kind: pKi
Please express pKi as -log10 of the molar concentration.

Check out these entries, answers already filled in.
{"record.smiles": "CCCCC/C=C\\C/C=C\\C/C=C\\C/C=C\\CCCCCC(=O)NCCO", "measured": 7.46}
{"record.smiles": "CCCCC/C=C\\C/C=C\\C/C=C\\C/C=C\\CC[C@@H](C)C(=O)N[C@@H](C)CO", "measured": 6.63}
{"record.smiles": "CCCCC/C=C\\C/C=C\\C/C=C\\C/C=C\\CC[C@H](C)C(=O)N[C@@H](C)CO", "measured": 6.41}
{"record.smiles": "CCCCC/C=C\\C/C=C\\C/C=C\\C/C=C\\CC[C@H](C)C(=O)N[C@H](C)CO", "measured": 6.73}

Now for the compound whose pKi we want.
Request: Could you tell me which pKi is on file for CCCCC/C=C\C/C=C\C/C=C\C/C=C\CC[C@@H](C)C(=O)N[C@H](C)CO ?
Response: 8.13
